Measured pKi, listed per entry.
# Tested On: thrombin (Homo sapiens, UniProt P00734)
# Assay Method Text: colorimetric microplate assay with synthetic peptide substrates, inhibition of thrombin
# Format: biochemical
# Run Parameters: values not in parentheses (purified compounds, error less than 10%); '-' = not active; read-out: Ki Thrombin
pKi: −log10 of the molar value. Non-standard residues stand in square brackets, D forms with d. Residues, ends and D or L forms follow the SMILES beside them. *: point of attachment. Agmatine = N=C(N)NCCCCN*
Readout Type: pKi

[
  {
    "Compound": "NCCCCCNC(=O)[C@@H]1CCCN1C(=O)[C@H](N)Cc1ccccc1",
    "Experimental Value": 6.16
  },
  {
    "Compound": "NC(N)=NCCCCNC(=O)[C@@H]1CCCN1C(=O)[C@H](N)Cc1ccccc1 [Compound A2B1] (H-[dF]-Pro-Agmatine)",
    "Experimental Value": 6.92
  }
]
